Could you please report measured TGI for the items listed next?
- System: OVCAR-5 ovarian
- procedure summary: NCI tumour cell line growth inhibition, 48 h

The molecule O=C(C[N+]12CN3CN(CN(C3)C1)C2)c1ccc(-c2ccccc2)cc1 , when measured on OVCAR-5 ovarian, yielded TGI of 37.6 µM

The molecule COc1cc(C2CC(c3ccccc3)=NN2C=O)ccc1Oc1ccnc2cc(Cl)ccc12 (stereo unspecified) , when measured on OVCAR-5 ovarian, yielded TGI of > 100 µM

The molecule O=C(/C=C/c1ccc(O)c(O)c1)N1CCN(c2ccc(Cl)cc2)CC1 , when measured on OVCAR-5 ovarian, yielded TGI of 85.7 µM

The molecule COC1OC2COC(=O)c3cc(O)c(O)c(O)c3-c3c(cc(O)c(O)c3O)C(=O)OC2C(O)C1O (stereo unspecified) , when measured on OVCAR-5 ovarian, yielded TGI of > 100 µM

The molecule COC(=O)CC1(O)C(=O)OCc2c1cc1n(c2=O)Cc2c-1nc1ccccc1c2OC (stereo unspecified) , when measured on OVCAR-5 ovarian, yielded TGI of > 100 µM

The molecule CC(=O)OCC1OC(OCCCOP(=O)(OCCC#N)OCC2OC(n3cnc4c(N)ncnc43)C(OC(=O)c3ccccc3)C2OC(=O)c2ccccc2)C(OC(C)=O)C(OC(C)=O)C1OC(C)=O (stereo unspecified) , when measured on OVCAR-5 ovarian, yielded TGI of > 100 µM

The molecule CCCCCCCCCCCC1N=C(N)N=C(N)N1c1cccc(Br)c1 (stereo unspecified) , when measured on OVCAR-5 ovarian, yielded TGI of 2.22 µM

The molecule Cc1ccc(C)c2c1C1CCCCC3(OCCCO3)C21O (stereo unspecified) , when measured on OVCAR-5 ovarian, yielded TGI of > 100 µM

The molecule O=C(Nc1cccc(-n2ccc3c(NC(=O)c4ccccc4)ncnc32)c1)Nc1ccc(Cl)c(C(F)(F)F)c1 , when measured on OVCAR-5 ovarian, yielded TGI of 9.69 µM

The molecule Nc1nc(N)c2nc(CN(C=O)c3ccc(C(=O)O)cc3)cnc2n1 , when measured on OVCAR-5 ovarian, yielded TGI of > 100 µM

The molecule CC1(C)N=C(N)N=C(N)N1c1ccc(CCCC(=O)Nc2ccc(S(=O)(=O)F)cc2)cc1 , when measured on OVCAR-5 ovarian, yielded TGI of > 100 µM

The molecule O=c1[nH]c2cc(Cl)ccc2nc1/C(=N\Nc1ccccc1)C(O)c1ccc2c(c1)OCO2 (stereo unspecified) , when measured on OVCAR-5 ovarian, yielded TGI of > 100 µM

The molecule OCCCN=C1CCCCC1 , when measured on OVCAR-5 ovarian, yielded TGI of > 100 µM

The molecule Cc1ccc(C2=CC(=O)/C(=C\C(=O)c3ccc(Br)cc3)O2)c(C)c1 , when measured on OVCAR-5 ovarian, yielded TGI of 56.7 µM

The molecule O=C1C(Cl)=C(Nc2ccc(S(=O)(=O)c3ccc(NC4=C(Cl)C(=O)c5ccccc5C4=O)cc3)cc2)C(=O)c2ccccc21 , when measured on OVCAR-5 ovarian, yielded TGI of 3.81 µM

The molecule C[C@]12CC[C@H]3[C@@H](CC=C4C[C@@H](O)CC[C@@]43C)[C@@H]1C/C(=C\c1cccnc1)[C@@H]2O , when measured on OVCAR-5 ovarian, yielded TGI of > 100 µM

The molecule O=C(O)CNc1ccc2c(c1)Cc1cc(Br)ccc1-2 , when measured on OVCAR-5 ovarian, yielded TGI of > 73.1 µM

The molecule CCN(CC)CCOC(COc1cc(C)cc(C)c1)COc1cc(C)cc(C)c1 , when measured on OVCAR-5 ovarian, yielded TGI of 6.18 µM

The molecule Cc1cc(NCCCCCCCNc2cc(C)nc3cc(N)ccc23)c2ccc(N)cc2n1 , when measured on OVCAR-5 ovarian, yielded TGI of > 100 µM

The molecule O=c1cc(NNc2cccc3ccccc23)[nH]c(=O)[nH]1 , when measured on OVCAR-5 ovarian, yielded TGI of 31.1 µM

The molecule CC(C)=C[C@@H]1C[C@H](C)[C@H]2CC[C@H](C)c3c(O)c(OC4OC(C)C(O)C(O)C4O)c(C)c1c32 (stereo partly specified) , when measured on OVCAR-5 ovarian, yielded TGI of 23.2 µM

The molecule COc1cccc(C2CC(=O)Nc3c2c(C)nn3-c2nc3ccccc3[nH]2)c1OC (stereo unspecified) , when measured on OVCAR-5 ovarian, yielded TGI of > 100 µM

The molecule CNC(=O)CCN1CCN(CC/C=C2\c3ccccc3Sc3ccc(Cl)cc32)CC1 , when measured on OVCAR-5 ovarian, yielded TGI of 41.2 µM

The molecule C=CCC(N[C@@H](CO)c1ccccc1)c1ccc2ccccc2n1 (stereo partly specified) , when measured on OVCAR-5 ovarian, yielded TGI of > 100 µM

The molecule N#C[S-].[La+3].c1ccc(-c2ccccn2)nc1.c1ccc(-c2ccccn2)nc1.c1ccc(-c2ccccn2)nc1 , when measured on OVCAR-5 ovarian, yielded TGI of 55.1 µM

The molecule COc1cc(N=Nc2cc(Cc3ccc(N(C)C)cc3)c(N)cc2N(C)C)c2ncccc2c1 , when measured on OVCAR-5 ovarian, yielded TGI of 2.66 µM

The molecule Nc1ccc(CC[C@H]2CCC/C=C/[C@@H]3C[C@H](O)C[C@H]3[C@H](O)/C=C/C(=O)O2)cc1 , when measured on OVCAR-5 ovarian, yielded TGI of > 78.1 µM

The molecule CN(C)S(=O)(=O)c1ccc2[nH]c(O)c(C3=Nc4ccccc4C3=O)c2c1 , when measured on OVCAR-5 ovarian, yielded TGI of > 100 µM

The molecule C=C1OC2OC(C)C(NC(=O)OCC(Cl)(Cl)Cl)C(OC(C)=O)C2O1 (stereo unspecified) , when measured on OVCAR-5 ovarian, yielded TGI of > 100 µM

The molecule CC1(C)N=C(C(N)=O)c2[nH]cnc2N1 , when measured on OVCAR-5 ovarian, yielded TGI of > 100 µM

The molecule C/C(=C\C(=O)Nc1ccc2n[nH]nc2c1)Nc1ccc2n[nH]nc2c1 , when measured on OVCAR-5 ovarian, yielded TGI of > 100 µM

The molecule Cc1c(C#N)c2nnn(-c3cccc(Cl)c3)c(=O)n2c1-c1ccccc1 , when measured on OVCAR-5 ovarian, yielded TGI of > 100 µM

The molecule COc1ccc2nc3ccccc3c(NCCNCCO)c2c1 , when measured on OVCAR-5 ovarian, yielded TGI of 8.85 µM

The molecule CC(=O)N[C@@H](Cc1ccc(O)cn1)C(=O)NCc1ccc(Cl)cc1 , when measured on OVCAR-5 ovarian, yielded TGI of > 100 µM

The molecule COC(=O)/C=C(C)/C=C\COC1CCCCO1 (stereo unspecified) , when measured on OVCAR-5 ovarian, yielded TGI of > 100 µM

The molecule CCCC1C[C@H]2CCCCN2[C@H]2CCCN12 (stereo partly specified) , when measured on OVCAR-5 ovarian, yielded TGI of > 100 µM
